Target: human MS4A4A (human, UniProt Q96JQ5 1-239)
Assay: FACS, U937-huMS4A4A, 5 ug/ml
result_type: MFI
Would you mind answering with just the numeric figure?

Worked examples follow.
{"binder": "anti-MS4A4A antibody 4A-343 (antibody, human IgG1, V domains shown, humanized 4A-21; human IgG1/kappa) VH: QIQLVQSGAEVKKPGASVKVSCKASGYIFTSYGLSWVRQAPGQGLEWMGWINTYSGVPTYAQKFQGRVTMTLDTSTSTTYMELSSLRSEDTAVYYCARSLVDYWGQGTLVTVSS VL: DVVMTQTPLSLSVTPGQPASISCKSSQSLLYSDGKTYLSWYLQKPGQPPQRLIYLVSKLDSGVPDRFSGSGSGTDFTLKISRVEAEDVGVYYCWQGIDFHQTFGGGTKVEIK", "MFI": 513}
{"binder": "anti-MS4A4A antibody 4A-25 (antibody, V domains shown, murine parental; mFc = murine Fc; also called 4A-25.mFc) VH: QVTLKESGPGILQPSQTLSLTCSFSGFSLRTSDMGVGWVRQPSGEGLEWLADIWWDDNKYYNPSLKSRLTISKDTSSNQVFLKITSVDTADTATYYCARRANYGNLFDYWGQGTAVTVSS VL: DIVMTQSLKFMSTSVGDRVSITCKASQNVRSAVAWYQQKPGQSPKVLIYWASNRHTGVPDRFTGSGSGTDFTLTISNVQSEDLADYFCLQHWNYLTFGSGTKLEIK", "MFI": 648}

Now, please, on to the next binder.
Q. Request the reported MFI associated with anti-MS4A4A antibody 4A-348 (antibody, human IgG1, V domains shown, humanized 4A-21; human IgG1/kappa) VH: QIQLVQSGAEVKKPGASVKVSCKASGYIFTSYGLSWVRQAPGQGLEWMGWINTYSGVPTYAQKFQGRVTMTRDTSTSTVYMELSSLRSEDTAVYYCARSLVDYWGQGTLVTVSS VL: DIVMTQTPLSLSVTPGQPASISCKSSQSLLYSDGKTYLSWYLQKPGQPPQLLIYLVSKLDSGVPDRFSGSGSGTDFTLKISRVEAEDVGVYYCWQGIDFHQTFGGGTKVEIK
A. 47.8
